These measurements were taken from patent US12180193B2.

- measured.target: BRAF V600E (Homo sapiens, UniProt P15056, V600E)
- Construct: expressed in transfected cells
- Sequence (P15056 whole entry V600E): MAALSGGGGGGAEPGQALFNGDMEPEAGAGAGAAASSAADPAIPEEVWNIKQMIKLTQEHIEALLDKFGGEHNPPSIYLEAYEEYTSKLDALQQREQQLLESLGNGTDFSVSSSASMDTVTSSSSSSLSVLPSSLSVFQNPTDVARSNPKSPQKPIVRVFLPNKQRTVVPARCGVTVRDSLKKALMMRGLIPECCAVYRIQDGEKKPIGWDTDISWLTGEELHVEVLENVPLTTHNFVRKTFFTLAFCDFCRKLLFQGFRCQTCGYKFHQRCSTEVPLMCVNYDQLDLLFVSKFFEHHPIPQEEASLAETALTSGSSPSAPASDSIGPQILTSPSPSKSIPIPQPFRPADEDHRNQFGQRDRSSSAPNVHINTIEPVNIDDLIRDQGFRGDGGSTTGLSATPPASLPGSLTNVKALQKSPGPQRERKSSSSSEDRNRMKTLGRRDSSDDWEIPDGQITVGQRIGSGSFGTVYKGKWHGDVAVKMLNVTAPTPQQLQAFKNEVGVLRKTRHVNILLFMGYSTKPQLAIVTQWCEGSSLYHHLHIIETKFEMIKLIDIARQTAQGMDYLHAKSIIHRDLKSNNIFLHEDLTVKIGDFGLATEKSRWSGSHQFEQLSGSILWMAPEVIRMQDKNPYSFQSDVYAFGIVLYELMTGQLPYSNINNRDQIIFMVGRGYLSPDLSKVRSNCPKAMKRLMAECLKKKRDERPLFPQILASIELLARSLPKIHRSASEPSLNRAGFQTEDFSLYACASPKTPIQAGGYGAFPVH
- procedure.summary: Cellular assay of target protein degradation, T-Rex 293 cells stably transfected with HA-BRAF_V600E (HA immunofluorescence, high content imaging)
- Assay type: cell-based
- condition.description: half maximal degradation, T-Rex 293 HA-BRAF V600E; read-out: BRaf V600E DC50
reported.endpoint: DC50

Query: Item O=C1CCC(N2Cc3cc(CCCN4CC5(C4)CN(c4ccc(-c6cnc7[nH]cc(C(=O)c8c(F)ccc(NS(=O)(=O)N9CC[C@@H](F)C9)c8F)c7c6)cn4)C5)ccc3C2=O)C(=O)N1 (stereo partly drawn) : provide DC50
Reply: 5 to 50 nM

Query: Report DC50 for O=C1CCC(N2Cc3cc(N4CC(C5CN(c6ccc(-c7cnc8[nH]cc(C(=O)c9c(F)ccc(NS(=O)(=O)N%10CC[C@@H](F)C%10)c9F)c8c7)cc6)C5)C4)ccc3C2=O)C(=O)N1 (stereo partly drawn)
Reply: > 500 nM

Query: Specify DC50 for O=C1CCC(N2Cc3cc(CCCCN4CC5(C4)CN(c4ccc(-c6cnc7[nH]cc(C(=O)c8c(F)ccc(NS(=O)(=O)N9CC[C@@H](F)C9)c8F)c7c6)cc4)C5)ccc3C2=O)C(=O)N1 (stereo partly drawn) and stop.
Reply: 5 to 50 nM

Query: Look up DC50 of COc1cc(N2CC3(C2)CN(CC2CCN(c4ccc(-c5cnc6[nH]cc(C(=O)c7c(F)ccc(NS(=O)(=O)N8CC[C@@H](F)C8)c7F)c6c5)cc4)CC2)[C@H]3C)cc2c1C(=O)N(C1CCC(=O)NC1=O)C2 (stereo partly drawn) and report it.
Reply: 5 to 50 nM

Query: For the compound O=C1CCC(N2Cc3cc(OCCCCN4CCN(c5ccc(-c6cnc7[nH]cc(C(=O)c8c(F)ccc(NS(=O)(=O)N9CC[C@@H](F)C9)c8F)c7c6)cc5F)CC4)ccc3C2=O)C(=O)N1 (stereo partly drawn) , report DC50.
Reply: 5 to 50 nM

Query: Read off the recorded DC50 for O=C1CCC(N2Cc3cc(N4CCC(CN5CC6(CCN(c7ccc(-c8cnc9[nH]cc(C(=O)c%10c(F)ccc(NS(=O)(=O)N%11CC[C@@H](F)C%11)c%10F)c9c8)cc7F)C6)C5)CC4)ccc3C2=O)C(=O)N1 (stereo partly drawn)
Reply: < 5 nM

Query: # return recorded DC50 for input O=C1CC[C@H](N2Cc3cc(N4CCC(CN5CC6(C5)CN(c5ccc(-c7cnc8[nH]cc(C(=O)c9c(F)ccc(NS(=O)(=O)N%10CC[C@@H](F)C%10)c9F)c8c7)cc5)C6)CC4)c(F)cc3C2=O)C(=O)N1
Reply: 5 to 50 nM

Query: // Input: O=C1CC[C@H](NC(=O)c2ccc(N3CC4(CN(CCc5ccc(-c6cnc7[nH]cc(C(=O)c8c(F)ccc(NS(=O)(=O)N9CC[C@@H](F)C9)c8F)c7c6)cc5)C4)C3)cc2F)C(=O)N1 . Output its DC50 only.
Reply: 5 to 50 nM

Query: Could you please provide reported DC50 for CN(CC(F)F)S(=O)(=O)Nc1ccc(F)c(C(=O)c2c[nH]c3ncc(-c4ccc(N5CCC(CN6CCC(c7ccc8c(c7)CN(C7CCC(=O)NC7=O)C8=O)CC6)CC5)cc4)cc23)c1F (stereo not drawn) ? Thanks!
Reply: 5 to 50 nM
